- Tested on: MCF7
- experiment.summary: Cytotoxicity against human MCF7 cells transfected with MDR1 assessed as inhibition of cell proliferation incubated for 4 hrs by MTS assay
- Assay type: functional, cell-based
- test.parameters: MCF7, 4 h
Where a SMILES comes first, the peptide text is derived from it. [ ]: non-standard residue; d: D form. ξ: configuration not given here. Bip = N[C@@H](Cc1ccc(-c2ccccc2)cc1)C(=O)O; ξBip = NC(Cc1ccc(-c2ccccc2)cc1)C(=O)O; ξDip = NC(C(=O)O)C(c1ccccc1)c1ccccc1
The threshold is 8 µM. Values of IC50 beneath it are tagged yes; values meeting or exceeding it are tagged no.

>>> assigned_category("N=C(N)NCCC[C@H](NC(=O)[C@H](Cc1c[nH]c2ccccc12)NC(=O)[C@H](Cc1c[nH]c2ccccc12)NC(=O)[C@H](CCCNC(=N)N)NC(=O)[C@H](CCCNC(=N)N)NC(=O)C(NC(=O)[C@H](Cc1c[nH]c2ccccc12)NC(=O)[C@H](CCCNC(=N)N)NC(=O)[C@@H](N)CCCNC(=N)N)C(c1ccccc1)c1ccccc1)C(N)=O (stereo not given in full) (H-RRW[ξDip]RRWWR-NH2)")
"yes"
>>> assigned_category("NCCCC[C@H](NC(=O)[C@H](Cc1c[nH]c2ccccc12)NC(=O)[C@H](CCCCN)NC(=O)[C@H](CCCCN)NC(=O)C(NC(=O)[C@H](Cc1c[nH]c2ccccc12)NC(=O)[C@H](CCCCN)NC(=O)[C@H](CCCCN)NC(=O)[C@@H](N)Cc1c[nH]c2ccccc12)C(c1ccccc1)c1ccccc1)C(N)=O (stereo not given in full) (H-WKKW[ξDip]KKWK-NH2)")
"no"
>>> assigned_category("NCCCC[C@H](NC(=O)[C@H](Cc1c[nH]c2ccccc12)NC(=O)[C@H](Cc1c[nH]c2ccccc12)NC(=O)[C@H](CCCCN)NC(=O)[C@H](CCCCN)NC(=O)[C@H](Cc1c[nH]c2ccccc12)NC(=O)C(Cc1ccc(-c2ccccc2)cc1)NC(=O)[C@H](CCCCN)NC(=O)[C@@H](N)CCCCN)C(N)=O (stereo not given in full) (H-KK[ξBip]WKKWWK-NH2)")
"no"
>>> assigned_category("NCCCC[C@H](NC(=O)[C@H](Cc1c[nH]c2ccccc12)NC(=O)[C@H](Cc1c[nH]c2ccccc12)NC(=O)[C@H](CCCCN)NC(=O)[C@H](CCCCN)NC(=O)[C@H](Cc1c[nH]c2ccccc12)NC(=O)[C@H](Cc1ccc(-c2ccccc2)cc1)NC(=O)[C@H](CCCCN)NC(=O)[C@@H](N)CCCCN)C(N)=O (H-KK[Bip]WKKWWK-NH2)")
"yes"
>>> assigned_category("NCCCC[C@H](NC(=O)C(NC(=O)[C@H](Cc1c[nH]c2ccccc12)NC(=O)[C@H](CCCCN)NC(=O)[C@H](CCCCN)NC(=O)[C@H](Cc1c[nH]c2ccccc12)NC(=O)[C@H](Cc1c[nH]c2ccccc12)NC(=O)[C@H](CCCCN)NC(=O)[C@@H](N)CCCCN)C(c1ccccc1)c1ccccc1)C(N)=O (stereo not given in full) (H-KKWWKKW[ξDip]K-NH2)")
"yes"

###

Recorded pIC50 by entry
- Test system: IGROV-1
- experiment.summary: Cytotoxicity against human IGROV-1 cells assessed as inhibition of cell proliferation incubated for 4 hrs by MTS assay
- Assay type: functional, cell-based
- test.parameters: IGROV-1, 4 h
pIC50: −log10 of the molar value. Where a SMILES comes first, the peptide text is derived from it. [ ]: non-standard residue; d: D form. ξ: configuration not given here. Bip = N[C@@H](Cc1ccc(-c2ccccc2)cc1)C(=O)O; ξBip = NC(Cc1ccc(-c2ccccc2)cc1)C(=O)O; ξDip = NC(C(=O)O)C(c1ccccc1)c1ccccc1
readout: pIC50

>>> obs_value("N=C(N)NCCC[C@H](NC(=O)[C@H](Cc1c[nH]c2ccccc12)NC(=O)[C@H](Cc1c[nH]c2ccccc12)NC(=O)[C@H](CCCNC(=N)N)NC(=O)[C@H](CCCNC(=N)N)NC(=O)C(NC(=O)[C@H](Cc1c[nH]c2ccccc12)NC(=O)[C@H](CCCNC(=N)N)NC(=O)[C@@H](N)CCCNC(=N)N)C(c1ccccc1)c1ccccc1)C(N)=O (stereo not given in full) (H-RRW[ξDip]RRWWR-NH2)")
4.95
>>> obs_value("NCCCC[C@H](NC(=O)C(NC(=O)[C@H](Cc1c[nH]c2ccccc12)NC(=O)[C@H](CCCCN)NC(=O)[C@H](CCCCN)NC(=O)[C@H](Cc1c[nH]c2ccccc12)NC(=O)[C@H](Cc1c[nH]c2ccccc12)NC(=O)[C@H](CCCCN)NC(=O)[C@@H](N)CCCCN)C(c1ccccc1)c1ccccc1)C(N)=O (stereo not given in full) (H-KKWWKKW[ξDip]K-NH2)")
5.19
>>> obs_value("NCCCC[C@H](NC(=O)[C@H](Cc1c[nH]c2ccccc12)NC(=O)[C@H](Cc1c[nH]c2ccccc12)NC(=O)[C@H](CCCCN)NC(=O)[C@H](CCCCN)NC(=O)[C@H](Cc1c[nH]c2ccccc12)NC(=O)[C@H](Cc1ccc(-c2ccccc2)cc1)NC(=O)[C@H](CCCCN)NC(=O)[C@@H](N)CCCCN)C(N)=O (H-KK[Bip]WKKWWK-NH2)")
4.84
>>> obs_value("NCCCC[C@H](NC(=O)[C@H](Cc1c[nH]c2ccccc12)NC(=O)[C@H](CCCCN)NC(=O)[C@H](CCCCN)NC(=O)C(NC(=O)[C@H](Cc1c[nH]c2ccccc12)NC(=O)[C@H](CCCCN)NC(=O)[C@H](CCCCN)NC(=O)[C@@H](N)Cc1c[nH]c2ccccc12)C(c1ccccc1)c1ccccc1)C(N)=O (stereo not given in full) (H-WKKW[ξDip]KKWK-NH2)")
4.71
>>> obs_value("NCCCC[C@H](NC(=O)[C@H](Cc1c[nH]c2ccccc12)NC(=O)[C@H](Cc1c[nH]c2ccccc12)NC(=O)[C@H](CCCCN)NC(=O)[C@H](CCCCN)NC(=O)[C@H](Cc1c[nH]c2ccccc12)NC(=O)C(Cc1ccc(-c2ccccc2)cc1)NC(=O)[C@H](CCCCN)NC(=O)[C@@H](N)CCCCN)C(N)=O (stereo not given in full) (H-KK[ξBip]WKKWWK-NH2)")
4.87
